assayed-target: methionyl-tRNA synthetase (Trypanosoma brucei brucei)
assay-info: inhibition of trypanosome methionyl-tRNA synthetase – biochemical, fluorescence polarization, orthogonal assay for T. brucei MetRS inhibitor project, dose response (AID 651989)
The source made the active and inactive calls. The rule behind the calls is not given here.
measured-parameter: IC50

# molecule, recorded-measurement
records = [
    ("O=C(OCC(=O)c1c[nH]c2ccccc12)c1ccc(OC(F)F)cc1", "> 119 µM (inactive)"),
    ("O=C(Cc1ccc(Br)cc1)NNC(=O)Nc1ccc(Cl)cc1", "> 119 µM (inactive)"),
    ("Cc1cc(Cl)ccc1OCCCC(=O)NNC(=O)c1ccccc1O", "> 119 µM (inactive)"),
    ("Cc1ccc(C(=O)Nn2c(O)c(C=C3N=c4ccccc4=N3)sc2=S)cc1", "> 119 µM (inactive)"),
    ("N#Cc1ccccc1CSc1nc2ncc(Br)cc2[nH]1", "> 119 µM (inactive)"),
    ("COc1ccc(CC(=O)OCC(=O)Nc2ccc(Br)cc2)cc1", "> 119 µM (inactive)"),
    ("Cc1cc2c(c(=O)n1CC1CCCO1)C(c1ccc3c(c1)OCO3)C(C#N)=C(N)O2 (stereo not drawn)", "> 119 µM (inactive)"),
    ("COc1ccc(NC(=O)COC(=O)CCCOc2ccc(Cl)cc2Cl)cc1", "> 119 µM (inactive)"),
    ("O=C(NCc1cc(Br)cc(Br)c1OC(=O)c1ccccc1[N+](=O)[O-])c1ccccc1", "> 119 µM (inactive)"),
    ("N#Cc1ccccc1CSc1ccc(-c2nc3ccccc3[nH]2)cn1", "> 119 µM (inactive)"),
    ("CO/N=C(\\c1nonc1N)N1CCN(c2ccc(Cl)cc2[N+](=O)[O-])CC1", "> 119 µM (inactive)"),
    ("COc1cc(OC)c(OC)cc1/C=N/Nc1nc2ccccc2[nH]1", "> 119 µM (inactive)"),
]
